B1: TPR t1 (parent)
chain: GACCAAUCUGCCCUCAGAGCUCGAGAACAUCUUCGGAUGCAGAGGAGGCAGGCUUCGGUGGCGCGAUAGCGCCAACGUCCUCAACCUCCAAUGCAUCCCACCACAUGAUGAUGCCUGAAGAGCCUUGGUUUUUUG

- Variants of: B1
- method: polymerase ribozyme fitness, log enrichment relative to wild type (log ratio); higher = more active; in vitro selection for triplet polymerase activity
Could you label it yes (1) if measured polymerase ribozyme fitness (log ratio) is -4 or higher, and no (0) otherwise?

Past entries and their recorded results:
- G25A A43G C72U A111U: no (0)
- U32C A46U G63C C104A G117C: no (0)
- G36C G61U A95C: yes (1)
- A29U C101A G110A A118G A121G: no (0)
- G58A U130G: yes (1)

(Q) Test whether the variant A29U G69C C98U G113C records polymerase ribozyme fitness (log ratio) of -4 or higher.
(A) no (0)

(Q) Test whether the variant A6U A26U C70A G120U records polymerase ribozyme fitness (log ratio) of -4 or higher.
(A) no (0)

(Q) Test whether the variant C79A G93U records polymerase ribozyme fitness (log ratio) of -4 or higher.
(A) yes (1)

(Q) Test whether the variant C70A U129A records polymerase ribozyme fitness (log ratio) of -4 or higher.
(A) yes (1)

(Q) Test whether the variant A50G A105C records polymerase ribozyme fitness (log ratio) of -4 or higher.
(A) yes (1)
